Reported EC50 is given for each of the following binders.
- Target System: T1, Biot-C7 peptide: biotinylated NH2-PYHTLNLLELHHTAMPGSVFSLGLPLATALAIA-COOH (human, biotinylated (position not given))
- T1 construct: also called C7biot; biotinylated antigen-specific peptide
- T1 peptide: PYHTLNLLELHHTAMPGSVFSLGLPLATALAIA
- Test Details: activity ELISA on Biot-C7 peptide; column head printed ED50 (ng/ml)
Write the answer as a number in µg/mL, unit excluded.

Binder | Assay Value
HD-LDT52S humanized anti-CMKLR1 antibody (antibody, V domains shown, fused to constant fragment of human immunoglobulin) VH: EVQLVESGGGLVQPGGSLRLSCAASGFTFSSYAMSWVRQAPGKGLELVATINRYGGSTYYAASVKGRFTISRDNSKNTLYLQMNSLRAEDTAVYYCPKLIYYGNEGDSWGQGTLVTVSS VL: AIQLTQSPSSLSASVGDRVTITCRASQSVSFLHWYQQKPGKAPKRWIYDASKLTSGVPSRFSGSGSGTDFTLTISSLQPEDFATYYCQQWQSKPPLTFGGGTKVEIK | 0.237
HEF-LEF humanized anti-CMKLR1 antibody (antibody, V domains shown, fused to constant fragment of human immunoglobulin) VH: EVQLVESGGGLVQPGGSLRLSCAASGFTFSSYAMSWVRQAPGKGLELVSTISGSGGSTYYAASVKGRFTISRDNSKNTLYLQMNSLRAEDTAVYYCPKLIYYGNEGDSWGQGTLVTVSS VL: AIQLTQSPSSLSASVGDRVTITCRASQSVSFLHWYQQKPGKAPKRLIYDASKLESGVPSRFSGSGSGTDFTLTISSLQPEDFATYYCQQWQSKPPLTFGGGTKVEIK | 0.183
anti-CMKLR1 antibody 2G1 (parental chimeric antibody) (antibody, human IgG1, V domains shown, also called 2G1 wt; 2G1 WT) VH: EVQLVASGGGLVQPGGSLKLSCAASGFTFSSYGMSWVRQTPDRRLELVATINRYGGSTYYPDSVKGRFTISRDNAKNTLYLQMSSLKSEDTAMYYCPRLIYYGNEGDSWGQGTTLTVSS VL: QIVLTQSPAIMSASPGEKVTMTCSASSSVSFMHWYQQKSGTSPKRWIYDTTKLTSGVPARFSGSGSGTFYSLTISSMEAEDAATYYCQQWNSKPPLTFGPGTKLELKR | 0.222
HDLD humanized anti-CMKLR1 antibody (antibody, human IgG1, V domains shown, Variable domains only; fused to constant fragment of human immunoglobulin (human IgG1, kappa)) VH: EVQLVESGGGLVQPGGSLRLSCAASGFTFSSYAMSWVRQAPGKGLELVATINRYGGSTYYAASVKGRFTISRDNSKNTLYLQMNSLRAEDTAVYYCPKLIYYGNEGDSWGQGTLVTVSS VL: AIQLTQSPSSLSASVGDRVTITCRASQSVSFLHWYQQKPGKAPKRWIYDATKLTSGVPSRFSGSGSGTDFTLTISSLQPEDFATYYCQQWQSKPPLTFGGGTKVEIK | 0.193

# ---- query binder ----
So, HEF-LDT52S humanized anti-CMKLR1 antibody (antibody, V domains shown, fused to constant fragment of human immunoglobulin) VH: EVQLVESGGGLVQPGGSLRLSCAASGFTFSSYAMSWVRQAPGKGLELVSTISGSGGSTYYAASVKGRFTISRDNSKNTLYLQMNSLRAEDTAVYYCPKLIYYGNEGDSWGQGTLVTVSS VL: AIQLTQSPSSLSASVGDRVTITCRASQSVSFLHWYQQKPGKAPKRWIYDASKLTSGVPSRFSGSGSGTDFTLTISSLQPEDFATYYCQQWQSKPPLTFGGGTKVEIK ? Its EC50 was 0.126
